Data origin: patent US8940739B2

system tested: cDNA-expressed human hepatic CYP3A4 (Homo sapiens (Human), UniProt P08684)
Sequence (P08684 whole entry): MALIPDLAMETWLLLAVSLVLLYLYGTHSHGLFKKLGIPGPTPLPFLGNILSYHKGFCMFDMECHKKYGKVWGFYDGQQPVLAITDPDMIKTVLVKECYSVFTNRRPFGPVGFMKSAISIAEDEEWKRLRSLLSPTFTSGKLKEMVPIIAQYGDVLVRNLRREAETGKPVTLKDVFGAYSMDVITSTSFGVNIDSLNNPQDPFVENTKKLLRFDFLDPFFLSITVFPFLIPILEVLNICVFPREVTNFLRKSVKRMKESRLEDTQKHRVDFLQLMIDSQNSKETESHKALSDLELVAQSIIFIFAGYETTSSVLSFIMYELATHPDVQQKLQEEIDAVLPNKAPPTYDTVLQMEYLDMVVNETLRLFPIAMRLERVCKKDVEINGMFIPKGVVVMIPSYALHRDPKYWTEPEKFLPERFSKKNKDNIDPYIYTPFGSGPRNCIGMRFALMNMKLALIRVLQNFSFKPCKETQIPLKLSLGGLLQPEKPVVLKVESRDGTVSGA
assay notes: Measurement of CYP (IC50 of P450 CYP3A4), BFC substrate
Assay type: in vitro ADME
condition set: 20 minutes
Entries and their pIC50
Keep in mind that pIC50 stands for -log10 of concentration in molar terms.

Completed entries (count: 7):
{"columns": ["compound", "quantity name", "measured value"],
 "data": [
  ["C=CCN1CC(=O)N2[C@@H](Cc3ccc(O)cc3)C(=O)N(Cc3cccc4c(C(=O)N5CCN(CCCO)CC5)cn(C)c34)C[C@@H]2N1C(=O)NCc1ccccc1", "pIC50", 4.95],
  ["C=CCN1CC(=O)N2C(CN(Cc3cccc4c(C(=O)Nc5ccc(CCO)cc5)cn(C)c34)C(=O)[C@@H]2Cc2ccc(O)cc2)N1C(=O)NCc1ccccc1 (some centres unmarked)", "pIC50", 5.13],
  ["C=CCN1CC(=O)N2[C@@H](Cc3ccc(O)cc3)C(=O)N(Cc3cccc4c(-c5ccc(C(=O)NN6CCN(C)CC6)cc5)cn(C)c34)C[C@@H]2N1C(=O)NCc1ccccc1", "pIC50", 5.60],
  ["C=CCN1CC(=O)N2[C@@H](Cc3ccc(O)cc3)C(=O)N(Cc3cccc4c(-c5cnc6ccccc6c5)cn(C)c34)C[C@@H]2N1C(=O)NCc1ccccc1", "pIC50", 5.68],
  ["C=CCN1CC(=O)N2[C@@H](Cc3ccc(O)cc3)C(=O)N(Cc3cccc4c(C(=O)N(C)CCN5CCN(C)CC5)cn(C)c34)C[C@@H]2N1C(=O)NCc1ccccc1", "pIC50", 5.11],
  ["C=CCN1CC(=O)N2C(Cc3ccc(O)cc3)C(=O)N(Cc3cccc4c(C(=O)Nc5ccc(N(CCN(CC)CC)CCN(CC)CC)nc5)cn(C)c34)CC2N1C(=O)NCc1ccccc1 (centres unmarked)", "pIC50", 5.27],
  ["C=CCN1CC(=O)N2[C@@H](Cc3ccc(O)cc3)C(=O)N(Cc3cccc4c(C(=O)NC5CCN(CCCO)CC5)cn(C)c34)C[C@@H]2N1C(=O)NCc1ccccc1", "pIC50", 5.01]
]}

We now examine a further compound.
The compound `C=CCN1CC(=O)N2[C@@H](Cc3ccc(O)cc3)C(=O)N(Cc3cccc4c(C(=O)NN5CCOCC5)cn(C)c34)C[C@@H]2N1C(=O)NCc1ccccc1` , tested on cDNA-expressed human hepatic CYP3A4 (Homo sapiens (Human), UniProt P08684), showed pIC50 of 4.65

====

Entries and their GI50
System: MV-4-11 (human, Acute Myeloid Leukemia cell line) cells
assay notes: Cell growth inhibition assay, GI50 of MV-4-11
Assay type: cell-based
condition set: Homo sapiens, MV4-11, 72 h, MV-4-11 cells
Use nM as the unit, but write only the number.

Completed entries (count: 6):
{"columns": ["compound", "system tested", "GI50 (nM)"],
 "data": [
  ["C=CCN1CC(=O)N2C(Cc3ccc(O)cc3)C(=O)N(Cc3cccc4c(C(=O)Nc5ccc(N(C)CC(C)C)nc5)cn(C)c34)CC2N1C(=O)NCc1ccccc1 (stereo not shown) [Compound G-17]", "MV-4-11 (human, Acute Myeloid Leukemia cell line) cells", 2],
  ["C=CCN1CC(=O)N2[C@@H](Cc3ccc(O)cc3)C(=O)N(Cc3cccc4c(C(=O)NCCCOC)cn(C)c34)C[C@@H]2N1C(=O)NCc1ccccc1 [Compound F-6]", "MV-4-11 (human, Acute Myeloid Leukemia cell line) cells", 11.9],
  ["C=CCN1CC(=O)N2[C@@H](Cc3ccc(O)cc3)C(=O)N(Cc3cccc4c(-c5ccc(C(=O)N6CCCCC6)cc5)cn(C)c34)C[C@@H]2N1C(=O)NCc1ccccc1 [Compound D-4]", "MV-4-11 (human, Acute Myeloid Leukemia cell line) cells", 1.4],
  ["C=CCN1CC(=O)N2[C@@H](Cc3ccc(O)cc3)C(=O)N(Cc3cccc4c(C(=O)NC5CCN(C(=O)c6ccc(N7CCN(C)CC7)cc6)CC5)cn(C)c34)C[C@@H]2N1C(=O)NCc1ccccc1 [Compound F-67]", "MV-4-11 (human, Acute Myeloid Leukemia cell line) cells", 2.5],
  ["C=CCN1CC(=O)N2[C@@H](Cc3ccc(O)cc3)C(=O)N(Cc3cccc4c(C(=O)N5CCN(C(=O)OC(C)(C)C)CC5)cn(C)c34)C[C@@H]2N1C(=O)NCc1ccccc1 [Compound E-1]", "MV-4-11 (human, Acute Myeloid Leukemia cell line) cells", 5.8],
  ["C=CCN1CC(=O)N2[C@@H](Cc3ccc(O)cc3)C(=O)N(Cc3cccc4c(-c5ccc(NC(=O)Nc6ccncn6)cc5)cn(C)c34)C[C@@H]2N1C(=O)NCc1ccccc1 [Compound D-81]", "MV-4-11 (human, Acute Myeloid Leukemia cell line) cells", 9.9]
]}

Looking up C=CCN1CC(=O)N2[C@@H](Cc3ccc(O)cc3)C(=O)N(Cc3cccc4c(-c5ccc(NC(=O)Nc6ccccc6)cc5)cn(C)c34)C[C@@H]2N1C(=O)NCc1ccccc1 [Compound D-73] , I found its GI50 recorded as 14.4

Looking up C=CCN1CC(=O)N2[C@@H](Cc3ccc(O)cc3)C(=O)N(Cc3cccc4c(C(=O)Nc5ccc(N6CCC(N7CCN(C)CC7)CC6)nc5)cn(C)c34)C[C@@H]2N1C(=O)NCc1ccccc1 [Compound G-57] , I found its GI50 recorded as 1.3

Looking up C=CCN1CC(=O)N2C(Cc3ccc(O)cc3)C(=O)N(Cc3cccc4c(-c5ccc(NC(=O)N6CCN(S(C)(=O)=O)CC6)nc5)cn(C)c34)CC2N1C(=O)NCc1ccccc1 (stereo not shown) [Compound G-68] , I found its GI50 recorded as 2.2

Looking up C=CCN1CC(=O)N2[C@@H](Cc3ccc(O)cc3)C(=O)N(Cc3cccc4c(-c5ccc(C(=O)N(N)C(C)C)cc5)cn(C)c34)C[C@@H]2N1C(=O)NCc1ccccc1 [Compound D-42] , I found its GI50 recorded as 1.8
